For each record, write down the corresponding log10 of GI50.
assay-summary: Anticancer activity against breast cancer cells
Type: functional
assay-conditions: Homo sapiens, Cancer cell lines
Recall that a logarithmic scale is used here: each number is log10 of GI50 in nM.

Report log10 of GI50 for `O=C(c1ccccc1)c1c(C(F)(F)F)[n+]([O-])c2ccc(F)cc2[n+]1[O-]` please.
2.86

Report log10 of GI50 for `O=C(c1ccc2ccccc2c1)c1c(C(F)(F)F)[n+]([O-])c2ccc(F)cc2[n+]1[O-]` please.
3.23

Report log10 of GI50 for `O=C(c1ccc2ccccc2c1)c1c(C(F)(F)F)[n+]([O-])c2cc(C(F)(F)F)ccc2[n+]1[O-]` please.
3.22

Report log10 of GI50 for `O=C(c1cccs1)c1c(C(F)(F)F)[n+]([O-])c2ccc(C(F)(F)F)cc2[n+]1[O-]` please.
2.70

Report log10 of GI50 for `O=C(c1ccc2ccccc2c1)c1c(C(F)(F)F)[n+]([O-])c2cc(Cl)c(Cl)cc2[n+]1[O-]` please.
3.21

Report log10 of GI50 for `O=C(c1ccco1)c1c(C(F)(F)F)[n+]([O-])c2cc(Cl)c(Cl)cc2[n+]1[O-]` please.
3.14

Report log10 of GI50 for `O=C(c1ccco1)c1c(C(F)(F)F)[n+]([O-])c2ccc(Cl)cc2[n+]1[O-]` please.
2.45

Report log10 of GI50 for `O=C(c1ccco1)c1c(C(F)(F)F)nc2ccc(C(F)(F)F)cc2[n+]1[O-]` please.
4.54

Report log10 of GI50 for `O=C(c1ccco1)c1c(C(F)(F)F)nc2cc(C(F)(F)F)ccc2[n+]1[O-]` please.
4.59
